Target or system: varicella zoster virus DNA polymerase (Varicella-zoster virus, UniProt P09252)
Sequence (P09252 whole entry): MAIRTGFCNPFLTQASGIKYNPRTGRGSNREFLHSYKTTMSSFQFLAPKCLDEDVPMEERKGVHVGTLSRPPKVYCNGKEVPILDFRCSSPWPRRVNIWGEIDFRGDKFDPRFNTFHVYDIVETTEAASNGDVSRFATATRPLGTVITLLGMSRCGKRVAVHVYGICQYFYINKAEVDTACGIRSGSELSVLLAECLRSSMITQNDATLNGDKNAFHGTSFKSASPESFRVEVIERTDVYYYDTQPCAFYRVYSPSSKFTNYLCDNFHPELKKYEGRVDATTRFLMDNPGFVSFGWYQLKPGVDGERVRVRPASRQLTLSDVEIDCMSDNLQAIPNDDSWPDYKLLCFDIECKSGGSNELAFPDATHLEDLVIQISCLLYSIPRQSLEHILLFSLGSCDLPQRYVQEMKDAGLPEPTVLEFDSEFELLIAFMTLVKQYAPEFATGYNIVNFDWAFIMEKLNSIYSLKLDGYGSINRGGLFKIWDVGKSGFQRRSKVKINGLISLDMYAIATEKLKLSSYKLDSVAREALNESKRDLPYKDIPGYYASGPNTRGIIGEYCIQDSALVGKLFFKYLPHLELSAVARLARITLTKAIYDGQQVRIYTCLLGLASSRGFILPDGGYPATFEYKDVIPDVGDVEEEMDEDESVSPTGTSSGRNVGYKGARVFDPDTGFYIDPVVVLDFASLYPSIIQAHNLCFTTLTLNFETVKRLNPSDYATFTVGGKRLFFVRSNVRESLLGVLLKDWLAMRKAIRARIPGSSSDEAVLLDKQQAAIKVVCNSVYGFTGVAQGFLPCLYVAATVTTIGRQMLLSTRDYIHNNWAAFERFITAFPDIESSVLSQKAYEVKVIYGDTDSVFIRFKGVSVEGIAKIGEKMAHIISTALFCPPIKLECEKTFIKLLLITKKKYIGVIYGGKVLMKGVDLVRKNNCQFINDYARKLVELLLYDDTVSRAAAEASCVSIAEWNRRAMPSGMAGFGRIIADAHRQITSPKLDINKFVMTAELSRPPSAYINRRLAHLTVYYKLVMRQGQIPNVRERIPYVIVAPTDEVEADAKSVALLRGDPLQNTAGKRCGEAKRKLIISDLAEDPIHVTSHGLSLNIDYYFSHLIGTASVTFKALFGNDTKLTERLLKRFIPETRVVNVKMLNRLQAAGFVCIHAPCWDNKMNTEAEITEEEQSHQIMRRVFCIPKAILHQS
Here the recorded pIC50 is given for each entry.
# log scale: pIC50 equals minus log10 of the concentration in mol/L

Completed entries (count: 5):
{"Compound": "COc1ncc(O[C@H]2CCN3C(=O)OC[C@@H]3C2)cc1C(=O)NCc1ccc(Cl)cc1", "pIC50": 6.96}
{"Compound": "COCCOc1nc(-c2cnn(C(F)F)c2)c(O[C@H]2CCN3C(=O)OC[C@@H]3C2)cc1C(=O)NCc1ccc(Cl)cc1", "pIC50": 8.83}
{"Compound": "COc1nc(-c2cnn(C(F)F)c2)c(O[C@H]2CCN3C(=O)OC[C@@H]3C2)cc1C(=O)NCc1ccc(Cl)c(F)c1", "pIC50": 8.27}
{"Compound": "COc1nc(-c2cnco2)c(O[C@H]2CCN3C(=O)OC[C@@H]3C2)cc1C(=O)NCc1ccc(C#N)cc1", "pIC50": 9.45}
{"Compound": "COc1nc(N2CCC(C(C)(C)N)C2)c(O[C@H]2CCN3C(=O)OC[C@@H]3C2)cc1C(=O)NCc1ccc(Cl)cc1 (single isomer, unassigned) [Compound 72]", "pIC50": 7.91}

-- ask Dear colleague, I am looking for the recorded pIC50 of the following compound: COc1nc(N2CCC(C(C)(C)N)C2)c(O[C@H]2CCN3C(=O)OC[C@@H]3C2)cc1C(=O)NCc1ccc(Cl)cc1 (single isomer, unassigned) [Compound 71]
-- reply 8.45

-- ask Item: COc1nc(-c2cnn(C(F)F)c2)c(O[C@H]2CCN3C(=O)OC[C@@H]3C2)cc1C(=O)NCc1ccc(Cl)cc1
-- reply 9.15

-- ask Same for COc1nc(-c2cc(C)ns2)c(O[C@H]2CCN3C(=O)OC[C@@H]3C2)cc1C(=O)NCc1ccc(Cl)cc1
-- reply 9.65

-- ask Check COc1nc(-c2nc(C)no2)c(O[C@H]2CCN3C(=O)OC[C@@H]3C2)cc1C(=O)NCc1ccc(Cl)cc1 too.
-- reply 10.27

-- ask Also need COc1nc(-c2cnco2)c(O[C@H]2CCN3C(=O)OC[C@@H]3C2)cc1C(=O)NCc1ccc(Cl)cc1 , thanks.
-- reply 10.17

-- ask Likewise for COc1nc(N2CC(C(C)(C)O)C2)c(O[C@H]2CCN3C(=O)OC[C@@H]3C2)cc1C(=O)NCc1ccc(Cl)cc1 ?
-- reply 7.84

-- ask And then COc1nc(-c2cncs2)c(O[C@H]2CCN3C(=O)OC[C@@H]3C2)cc1C(=O)NCc1ccc(Cl)cc1 , what is it?
-- reply 9.20

====

Catalogue of pEC50 values
Tested on: VZV
Assay notes: Viral qPCR assay, VZV
Type: cell-based, varicella zoster virus
Conditions: Human alphaherpesvirus 3, 72 h, MeWo or MRC5 cells, 0.04-0.1 pfu/cell, growth medium, viral genome copies by qPCR
Please express pEC50 as -log10 of the molar concentration.

{"Smiles record": "COc1nc(-c2cncnc2)c(O[C@H]2CCN3C(=O)OC[C@@H]3C2)cc1C(=O)NCc1ccc(Cl)cc1", "Target or system": "VZV", "pEC50": 6.82}
{"Smiles record": "COc1nc(-c2cccnc2)c(O[C@H]2CCN3C(=O)OC[C@@H]3C2)cc1C(=O)NCc1ccc(Cl)cc1", "Target or system": "VZV", "pEC50": 6.70}

-- ask Missing value: pEC50, VZV, entry COc1nc(-c2nc(C)ns2)c(O[C@H]2CCN3C(=O)OC[C@@H]3C2)cc1C(=O)NCc1ccc(Cl)cc1 . Fill in?
-- reply 7.15

-- ask Continue with CCN(CC)CCOc1nc(-c2cnn(C(F)F)c2)c(O[C@H]2CCN3C(=O)OC[C@@H]3C2)cc1C(=O)NCc1ccc(Cl)cc1
-- reply 6.40

-- ask Repeat for the following molecule: COc1nc(-c2cnc(N)c(F)c2)c(O[C@H]2CCN3C(=O)OC[C@@H]3C2)cc1C(=O)NCc1ccc(Cl)cc1
-- reply 6.92

-- ask For COc1ccc(-c2nc(OC)c(C(=O)NCc3ccc(Cl)cc3)cc2O[C@H]2CCN3C(=O)OC[C@@H]3C2)s1 then?
-- reply 6.17

-- ask Proceed to CN1CCN(CCCOc2nc(-c3cnn(C(F)F)c3)c(O[C@H]3CCN4C(=O)OC[C@@H]4C3)cc2C(=O)NCc2ccc(Cl)cc2)CC1
-- reply 6.21

====

Target or system: Human cytomegalovirus DNA polymerase (Human cytomegalovirus, UniProt P08546)
Construct: made in house; host or cells: SF21 insect cells (baculovirus vector)
Sequence (P08546 whole entry): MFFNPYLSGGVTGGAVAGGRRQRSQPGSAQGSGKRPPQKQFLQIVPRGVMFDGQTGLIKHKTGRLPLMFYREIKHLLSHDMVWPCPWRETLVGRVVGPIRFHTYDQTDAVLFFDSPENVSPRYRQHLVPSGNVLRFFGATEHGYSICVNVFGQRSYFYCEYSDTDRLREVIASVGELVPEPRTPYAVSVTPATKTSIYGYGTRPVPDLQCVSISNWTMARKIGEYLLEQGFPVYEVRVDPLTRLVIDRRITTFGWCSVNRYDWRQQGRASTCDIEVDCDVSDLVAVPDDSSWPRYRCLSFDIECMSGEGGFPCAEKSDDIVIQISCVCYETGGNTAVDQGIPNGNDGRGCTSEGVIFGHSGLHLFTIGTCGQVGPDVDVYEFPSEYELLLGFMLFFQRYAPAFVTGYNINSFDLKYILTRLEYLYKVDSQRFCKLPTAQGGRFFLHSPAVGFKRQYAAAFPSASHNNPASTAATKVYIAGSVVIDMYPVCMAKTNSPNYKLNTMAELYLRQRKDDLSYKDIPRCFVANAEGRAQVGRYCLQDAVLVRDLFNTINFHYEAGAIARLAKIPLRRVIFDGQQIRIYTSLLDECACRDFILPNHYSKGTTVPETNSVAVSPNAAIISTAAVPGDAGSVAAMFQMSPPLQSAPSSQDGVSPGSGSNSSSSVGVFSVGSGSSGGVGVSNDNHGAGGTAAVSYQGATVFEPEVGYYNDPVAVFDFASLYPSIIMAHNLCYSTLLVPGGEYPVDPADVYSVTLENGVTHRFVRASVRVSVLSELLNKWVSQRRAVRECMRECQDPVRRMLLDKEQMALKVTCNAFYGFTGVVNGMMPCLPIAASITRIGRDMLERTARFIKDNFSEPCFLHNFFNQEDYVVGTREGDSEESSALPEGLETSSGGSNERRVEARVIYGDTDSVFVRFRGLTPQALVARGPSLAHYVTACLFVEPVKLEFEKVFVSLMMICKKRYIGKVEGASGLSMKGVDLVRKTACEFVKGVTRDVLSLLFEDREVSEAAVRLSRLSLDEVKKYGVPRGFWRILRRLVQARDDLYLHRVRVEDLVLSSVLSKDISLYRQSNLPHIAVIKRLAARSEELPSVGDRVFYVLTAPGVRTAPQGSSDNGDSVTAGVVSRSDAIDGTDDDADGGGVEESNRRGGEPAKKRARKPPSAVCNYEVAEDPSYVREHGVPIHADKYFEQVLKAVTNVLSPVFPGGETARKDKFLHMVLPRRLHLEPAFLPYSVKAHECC
Assay notes: CMV polymerase assay (AlphaLISA)
Format: biochemical
Conditions: HCMV polymerase 0.2 nM; 30 min pre-incubation; 60 min at 37° C.; read-out: CMV (IC50)
Property label: IC50

{"Compound": "COc1ccc(-c2nc(OC)c(C(=O)NCc3ccc(Cl)cc3)cc2O[C@H]2CCN3C(=O)OC[C@@H]3C2)s1", "Target or system": "Human cytomegalovirus DNA polymerase (Human cytomegalovirus, UniProt P08546)", "IC50": "11 nM"}
{"Compound": "COc1nc(C2CC2O)c(O[C@H]2CCN3C(=O)OC[C@@H]3C2)cc1C(=O)NCc1ccc(Cl)cc1 (single isomer, unassigned) [Compound 79]", "Target or system": "Human cytomegalovirus DNA polymerase (Human cytomegalovirus, UniProt P08546)", "IC50": "28.7 nM"}
{"Compound": "COc1nc(-c2cc3nccnc3[nH]2)c(O[C@H]2CCN3C(=O)OC[C@@H]3C2)cc1C(=O)NCc1ccc(Cl)cc1", "Target or system": "Human cytomegalovirus DNA polymerase (Human cytomegalovirus, UniProt P08546)", "IC50": "33.6 nM"}
{"Compound": "COc1ccc(-c2nc(OC)c(C(=O)NCc3ccc(Cl)cc3)cc2O[C@H]2CCN3C(=O)OC[C@@H]3C2)cn1", "Target or system": "Human cytomegalovirus DNA polymerase (Human cytomegalovirus, UniProt P08546)", "IC50": "22.3 nM"}
{"Compound": "O=C(NCc1ccc(Cl)cc1)c1cc(O[C@H]2CCN3C(=O)OC[C@@H]3C2)c(-c2cnn(C(F)F)c2)nc1OCCO", "Target or system": "Human cytomegalovirus DNA polymerase (Human cytomegalovirus, UniProt P08546)", "IC50": "3.33 nM"}

-- ask Any idea what IC50 came out for COc1nc(CC(C)(C)O)c(O[C@H]2CCN3C(=O)OC[C@@H]3C2)cc1C(=O)NCc1ccc(Cl)cc1 on Human cytomegalovirus DNA polymerase (Human cytomegalovirus, UniProt P08546)?
-- reply 20.9 nM

-- ask Can you handle COc1nc(-c2cnn(C(F)F)c2)c(O[C@@H]2CCN(C(C)=O)[C@H](C)C2)cc1C(=O)NCc1ccc(Cl)cc1 next?
-- reply 14.5 nM

-- ask Also COc1nc(-c2cc3ccccc3[nH]2)c(O[C@H]2CCN3C(=O)OC[C@@H]3C2)cc1C(=O)NCc1ccc(Cl)cc1 ?
-- reply 5.8 nM

-- ask Item: CC(O)COc1nc(-c2cnn(C(F)F)c2)c(O[C@H]2CCN3C(=O)OC[C@@H]3C2)cc1C(=O)NCc1ccc(Cl)cc1 (some centres unmarked)
-- reply 4.62 nM

-- ask Now consider COc1nc(-c2nnc(C3CC3)s2)c(O[C@H]2CCN3C(=O)OC[C@@H]3C2)cc1C(=O)NCc1ccc(Cl)cc1 .
-- reply 11.7 nM

====

System: VZV
Assay notes: Viral qPCR assay, VZV
Type: cell-based, varicella zoster virus
Conditions: Human alphaherpesvirus 3, 72 h, MeWo or MRC5 cells, 0.04-0.1 pfu/cell, growth medium, viral genome copies by qPCR
Property label: pEC50
Value format note: pEC50 is -log10 of concentration (mol/L); just state the number.

These solved cases illustrate the format of a correct answer.
{"Smiles record": "CCOc1nc(-c2cnn(C(F)F)c2)c(O[C@H]2CCN3C(=O)OC[C@@H]3C2)cc1C(=O)NCc1ccc(Cl)cc1", "Reading": 6.24}
{"Smiles record": "Cc1nsc(-c2nc(OCC(C)(C)O)c(C(=O)NCc3ccc(Cl)cc3)cc2O[C@H]2CCN3C(=O)OC[C@@H]3C2)n1", "Reading": 6.68}
{"Smiles record": "COc1nc(C)c(O[C@H]2CCN3C(=O)OC[C@@H]3C2)cc1C(=O)NCc1ccc(Cl)cc1", "Reading": 6.08}

Consider the additional molecule presented here.
-- ask GET /values?readout=pEC50&system=VZV&item= COc1nc(-c2cnn(C(F)F)c2)c(O[C@@H]2CCN(C(C)=O)[C@H](C)C2)cc1C(=O)NCc1ccc(Cl)cc1
-- reply 6.05

====

Target or system: Human cytomegalovirus DNA polymerase (Human cytomegalovirus)
Construct: made in house; host or cells: SF21 insect cells (baculovirus vector)
Assay notes: CMV polymerase assay (AlphaLISA)
Assay type: biochemical
Conditions: HCMV polymerase 0.2 nM; 30 min pre-incubation; 60 min at 37° C.; read-out: CMV (IC50)
pIC50: −log10 of the molar value.
Binary call on pIC50: true (1) from 8 upward, false (0) beneath that.

{"Molecule": "O=C(NCc1ccc(Cl)cc1)c1cc(O[C@H]2CCN3C(=O)OC[C@@H]3C2)c(-c2cnn(C(F)F)c2)nc1OCC1CC1(F)F (stereo partly drawn)", "Assigned category": "false (0)"}
{"Molecule": "COc1nc(N2CCC(C(C)(C)O)C2)c(O[C@H]2CCN3C(=O)OC[C@@H]3C2)cc1C(=O)NCc1ccc(Cl)cc1 (stereo partly drawn) [Compound 68]", "Assigned category": "false (0)"}
{"Molecule": "O=C1CC[C@@H](COc2nc(-c3cnn(C(F)F)c3)c(O[C@H]3CCN4C(=O)OC[C@@H]4C3)cc2C(=O)NCc2ccc(Cl)cc2)N1", "Assigned category": "true (1)"}
{"Molecule": "COc1nc(-c2ccccn2)c(O[C@H]2CCN3C(=O)OC[C@@H]3C2)cc1C(=O)NCc1ccc(Cl)cc1", "Assigned category": "false (0)"}

-- ask Threshold query (pIC50 >= 8) on CN1C(=O)NC[C@@H]1COc1nc(-c2cnn(C(F)F)c2)c(O[C@H]2CCN3C(=O)OC[C@@H]3C2)cc1C(=O)NCc1ccc(Cl)cc1
-- reply true (1)
